System: MCF7
assay.comment: NCI tumour cell line growth inhibition, 48 h
Calls of active or inactive are those of the source. Rule as the data show it: active = GI50 up to about 1.1 µM and inactive = higher.
Exercise: for every item that follows, state its recorded GI50.

# annotated cases, reported GI50 shown
molecule: N#CC1(C#N)C(c2ccccc2)NC23CCCCC2C1(C#N)C(=O)N3 (stereo unspecified)
recorded.result: > 100 µM (inactive)
//
molecule: Cc1ccc(-c2c(-c3ccccc3)[nH]c(C)c2C(=O)ONC(=O)c2ccccc2)cc1
recorded.result: 4.84 µM (inactive)
//
molecule: O=C(/C=C/c1ccccc1)Oc1ccc(C(=O)/C=C/c2ccccc2)cc1
recorded.result: 6.08 µM (inactive)
//
molecule: COc1ccccc1CC1(O)OC(=O)c2ccccc21 (stereo unspecified)
recorded.result: > 100 µM (inactive)
//
molecule: COc1cc(C(c2ccc3c(c2)OCO3)N2C(=O)CCC2C(=O)O)cc(OC)c1OC (stereo unspecified)
recorded.result: > 100 µM (inactive)
//
molecule: O=C1N/C(=N/N=C\C(O)C(O)C(O)C(O)CO)N/C1=C/c1ccc(Cl)cc1 (stereo unspecified)
recorded.result: > 100 µM (inactive)

Hello, I would appreciate it if you could give GI50 for each entry below.
1. CCOC(=O)CC1C(O)C(=O)N(C)C1c1ccccc1 (stereo unspecified)
2. Cc1ccc2[nH]c(=O)c(-c3cnc(O)nn3)c(O)c2c1

Result string:
1: > 100 µM (inactive); 2: 36.9 µM (inactive)

Hello, I would appreciate it if you could give GI50 for each entry below.
1. C[Si](C)(c1ccc(C(=O)O)cc1)c1ccc(C(=O)O)cc1
2. COc1ccc(/C=C2\CN(C)C/C(=C\c3ccc(OC)c(OC)c3OC)C2=O)c(OC)c1OC
3. CCOC(=O)c1c(C)nc2c3ccccc3c(C#N)c(C)n12

Result string:
1: > 100 µM (inactive); 2: 0.0507 µM (active); 3: > 100 µM (inactive)

Hello, I would appreciate it if you could give GI50 for each entry below.
1. COC(=O)/C=C1/N=C(N(C)/N=C/c2ccccc2)NC1=O
2. Cc1ccc(N/N=C2\C3=C(CCC(C)(C)O3)C(=O)c3ccccc32)cc1
3. COC(=O)C1=C2SCc3cccc(c3)CSC3=C(C(=O)OC)SC(=C(S2)S1)S3
4. Nc1ccc2c(c1)N(C(=O)c1cc3cc(NC(=O)c4cc5ccccc5o4)ccc3[nH]1)CC2CCl (stereo unspecified)
5. COc1cc(Nc2ccc3c(c2)CCC3)nc(OC)n1

Result string:
1. > 100 µM (inactive)
2. 13.7 µM (inactive)
3. > 100 µM (inactive)
4. 0.0221 µM (active)
5. 29.6 µM (inactive)

Origin of the recorded values: ChEMBL document CHEMBL1201862
